assay: Total clearance in dog at 0.3 mg/kg, po; assay type: ADME, organism-based, Canis lupus familiaris; set-up: dose 0.3 mg/kg, route oral; settings: in vivo
outcome_measure: CL/F (mL/min/kg)
Report the value in mL/min/kg with no unit label.

Just so you know, measured CL/F for Cc1nc(-c2ccc(Cl)cc2)sc1C(=O)N[C@H]1CCCN(c2cccc(C(=O)O)c2)C1 came out at 0.333

----------
biological target: Peroxisome proliferator-activated receptor gamma (Rattus norvegicus); test: Agonist activity at rat PPARgamma
Sequence (O88275 whole entry): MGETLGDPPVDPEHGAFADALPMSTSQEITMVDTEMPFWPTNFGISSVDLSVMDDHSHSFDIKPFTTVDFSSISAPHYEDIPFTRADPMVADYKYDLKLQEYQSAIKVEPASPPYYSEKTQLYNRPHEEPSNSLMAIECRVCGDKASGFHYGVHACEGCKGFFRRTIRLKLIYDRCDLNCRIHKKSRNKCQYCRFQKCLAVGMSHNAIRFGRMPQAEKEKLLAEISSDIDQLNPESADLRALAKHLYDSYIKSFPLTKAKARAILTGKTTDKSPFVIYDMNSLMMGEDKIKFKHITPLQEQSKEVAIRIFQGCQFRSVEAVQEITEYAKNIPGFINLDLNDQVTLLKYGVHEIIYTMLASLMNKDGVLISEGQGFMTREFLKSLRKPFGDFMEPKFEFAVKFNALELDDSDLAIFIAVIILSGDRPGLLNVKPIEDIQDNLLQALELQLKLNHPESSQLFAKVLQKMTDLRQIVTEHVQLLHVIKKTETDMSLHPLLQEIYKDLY
outcome_measure: EC50 (µM)
Report the value in µM with no unit label.

Readout EC50 for Cc1nc(-c2ccc(Cl)cc2)sc1C(=O)N[C@H]1CCCN(c2cccc(C(=O)O)c2)C1 , test system Peroxisome proliferator-activated receptor gamma (Rattus norvegicus), was 13
